- TARGET OF ASSAY: T1, human IL4 (human, UniProt P05112 25-153, biotinylated in the SPR and competition assays (sites not given))
- T1 construct: Peprotech #200-04, mature protein produced in E. coli; also called hIL4; Interleukin 4
- T1 sequence: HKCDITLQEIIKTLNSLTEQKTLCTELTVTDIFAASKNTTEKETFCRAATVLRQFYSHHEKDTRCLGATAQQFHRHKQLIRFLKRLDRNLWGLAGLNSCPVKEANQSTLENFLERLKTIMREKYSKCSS
- MEASUREMENT NOTES: SPR ProteOn, biotin-IL4 on neutravidin chip, 1:1 fit
Listing of recorded kon by entry.
ASSAY READOUT: kon (M⁻¹ s⁻¹)

INSERT INTO results (binder, reported_result) VALUES
  ('C06_14A4 (designed binder, ankyrin repeat protein; His-tagged, IMAC-purified) DLGKKLLEAARAGQDDEVRILMANGADVNATDAWGLTPLHLAALLGHLEIVEVLLKHGADVNAHDETGFTPLHLAAVEGHLEIVEVLLKYGADVNASDILGRTPLHLAANFGHLEIVEVLLKYGADVNAQDKFGKTAFDISIDNGNEDLAEILQKLN', 318000),
  ('C06_53E9 (designed binder, ankyrin repeat protein; His-tagged, IMAC-purified) DLGKELLEAASAGQDDEVHILMANGADVNASDKDGSTPLHLAAVYGHLEIVEVLLKYGADVNAEDMNGYTPLHLAAADGHLEIVEVLLKYGADVDAKDRTGWTPLHLAGEFGHLEIVEVLLKYGADVNAQDKFGKTAFDISIDNGNEDLAEILQKLN', 862000);
